target: UniProt:P31645; assay: Human SERT (serotonin transporter) uptake assay; assay type: cell-based; conditions: read-out: hSERT Ki
property measured: pKi
Numbers only, as −log10 of the molar value.

[
  {
    "compound": "CNCC(Cc1ccccc1CO)c1ccc2ccccc2c1 (stereo not drawn) [Compound 90]",
    "assay result": 7.60
  },
  {
    "compound": "CNC[C@H](c1ccc(Br)c(Cl)c1)[C@@H](O)c1ccccc1 [Compound 21]",
    "assay result": 7.18
  },
  {
    "compound": "CNCC(Cc1ccc(C)s1)c1ccc2ccccc2c1 (stereo not drawn) [Compound 139]",
    "assay result": 8.19
  },
  {
    "compound": "CNC[C@H](c1ccc(Cl)c(Cl)c1)[C@@H](O)c1cccc(Br)c1 [Compound 161]",
    "assay result": 6.21
  },
  {
    "compound": "CNC[C@H](c1ccc2ccccc2c1)[C@H](O)c1cncc(OC)c1 [Compound 92]",
    "assay result": 8.03
  },
  {
    "compound": "CNC[C@@H](c1ccc(Cl)c(Cl)c1)[C@@H](O)c1cccc([S+](C)[O-])c1 (single isomer, unassigned) [Compound 116]",
    "assay result": 5.77
  },
  {
    "compound": "CNC[C@@H](c1ccc(Cl)c(Cl)c1)[C@@H](O)c1cccc(OC)n1 [Compound 157]",
    "assay result": 6.85
  },
  {
    "compound": "CNC[C@H](c1ccc(Cl)c(Cl)c1)[C@@H](O)c1cccc(SC)c1 [Compound 163]",
    "assay result": 6.72
  }
]

Working through the 4 compounds below one at a time, give pKi for each.
1. CNC[C@@H](c1ccc(Cl)c(Cl)c1)[C@@H](O)c1ccsc1 [Compound 106]
2. CNCC(Cc1cccnc1)c1ccc2ccccc2c1 (stereo not drawn) [Compound 74]
3. CNC[C@H](c1ccc2ccccc2c1)[C@H](OCc1cc(C)on1)c1ccccc1 [Compound 18]
4. CNCC(Cc1cccnc1)c1ccc(Cl)c(Cl)c1 (racemic) [Compound 80]

1. 6.13
2. 7.87
3. 9.40
4. 7.46

Working through the 6 compounds below one at a time, give pKi for each.
1. CNCC(c1ccc(Br)c(Cl)c1)[C@H](O)c1ccccc1 (stereo partly drawn) [Compound 16]
2. CNCC(Cc1ccccc1OC)c1ccc2ccccc2c1 (stereo not drawn) [Compound 57]
3. CNC[C@H](c1ccc2ccccc2c1)[C@H](O)c1cccs1 [Compound 47]
4. CNC[C@@H](c1ccc2ccccc2c1)[C@@H](O)c1cccs1 [Compound 144]
5. CNC[C@@H](Cc1ccccc1)c1ccc2ccccc2c1 [Compound 5]
6. CNC[C@H](c1ccc(Br)cc1)[C@H](O)c1ccccc1 (racemic) [Compound 149]

8.20
8.23
8.66
8.00
8.55
6.93

###

target: CYP3A4 (Homo sapiens (Human)); assay: Cytochrome P450 inhibition assay, recombinant CYP3A4 (BFC substrate); conditions: recombinant enzyme
Sequence (P08684 whole entry): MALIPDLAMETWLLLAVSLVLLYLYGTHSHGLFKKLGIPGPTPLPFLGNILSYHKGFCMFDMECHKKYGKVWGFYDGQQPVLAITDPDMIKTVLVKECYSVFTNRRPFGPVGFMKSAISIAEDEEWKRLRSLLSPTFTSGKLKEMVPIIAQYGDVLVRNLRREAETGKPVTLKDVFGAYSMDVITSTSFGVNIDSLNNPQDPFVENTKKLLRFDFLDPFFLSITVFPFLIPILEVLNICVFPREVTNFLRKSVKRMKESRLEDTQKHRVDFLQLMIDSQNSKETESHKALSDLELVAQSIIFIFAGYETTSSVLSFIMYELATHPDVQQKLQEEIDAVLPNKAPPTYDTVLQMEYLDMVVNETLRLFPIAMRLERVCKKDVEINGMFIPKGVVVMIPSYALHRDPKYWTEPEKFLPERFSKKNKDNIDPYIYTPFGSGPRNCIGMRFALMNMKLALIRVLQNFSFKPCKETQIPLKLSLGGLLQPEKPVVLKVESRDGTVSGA
I'd be grateful if you could share measured pIC50 for these entries.
One number for each entry, as −log10 of the molar value.

Working through the 5 compounds below one at a time, give pIC50 for each.
1. CNC[C@H](c1ccc(Br)c(Cl)c1)[C@H](O)c1ccccc1 (racemic)
2. CNC[C@H](c1ccc(Cl)c(Cl)c1)[C@H](O)c1ccccc1I
3. NC[C@H](c1ccc2ccccc2c1)[C@@H](O)c1ccncc1Cl
4. CNC[C@@H](c1ccc2ccccc2c1)[C@@H](OCC(N)=O)c1ccccc1
5. CNC[C@H](c1ccc(Cl)c(Cl)c1)[C@@H](O)c1ccccc1SC

5.09
5.28
4.96
4.70
4.82

###

biological target: hERG (Homo sapiens (Human), UniProt Q12809); assay: Human ERG (hERG) assay, hERG currents in hERG-expressing CHO cells; assay type: cell-based; settings: hERG-expressing CHO cells
Sequence (Q12809 whole entry): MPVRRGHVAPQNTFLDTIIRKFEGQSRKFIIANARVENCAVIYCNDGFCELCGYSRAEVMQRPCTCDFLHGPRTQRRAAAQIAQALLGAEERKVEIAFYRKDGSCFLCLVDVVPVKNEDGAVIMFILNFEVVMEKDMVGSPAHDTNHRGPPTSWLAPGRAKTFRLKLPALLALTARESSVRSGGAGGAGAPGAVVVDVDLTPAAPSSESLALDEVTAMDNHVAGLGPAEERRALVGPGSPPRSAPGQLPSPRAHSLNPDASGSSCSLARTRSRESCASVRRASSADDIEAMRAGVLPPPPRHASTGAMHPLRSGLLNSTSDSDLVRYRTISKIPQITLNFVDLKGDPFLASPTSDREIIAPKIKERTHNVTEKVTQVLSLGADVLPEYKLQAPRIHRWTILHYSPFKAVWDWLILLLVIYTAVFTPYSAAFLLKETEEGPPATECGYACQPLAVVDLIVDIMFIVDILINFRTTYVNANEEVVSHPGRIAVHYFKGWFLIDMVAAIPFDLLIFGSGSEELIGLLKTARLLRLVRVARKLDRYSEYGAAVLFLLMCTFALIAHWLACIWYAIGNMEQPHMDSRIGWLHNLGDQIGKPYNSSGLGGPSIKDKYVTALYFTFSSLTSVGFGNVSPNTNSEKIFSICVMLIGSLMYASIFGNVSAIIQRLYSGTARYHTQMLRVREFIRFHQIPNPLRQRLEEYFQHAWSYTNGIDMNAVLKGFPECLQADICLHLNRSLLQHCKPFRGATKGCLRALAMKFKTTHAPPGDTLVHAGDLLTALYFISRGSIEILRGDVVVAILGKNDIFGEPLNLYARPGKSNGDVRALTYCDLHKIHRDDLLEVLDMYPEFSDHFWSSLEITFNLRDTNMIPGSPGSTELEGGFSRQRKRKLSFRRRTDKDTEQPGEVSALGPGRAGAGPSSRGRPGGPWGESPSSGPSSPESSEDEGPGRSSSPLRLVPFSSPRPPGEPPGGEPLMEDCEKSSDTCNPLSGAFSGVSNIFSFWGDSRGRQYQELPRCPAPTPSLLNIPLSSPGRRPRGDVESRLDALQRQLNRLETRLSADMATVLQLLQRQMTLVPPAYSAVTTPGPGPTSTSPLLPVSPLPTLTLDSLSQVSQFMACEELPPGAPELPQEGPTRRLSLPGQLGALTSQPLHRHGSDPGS
property measured: pIC50
One number for each entry, as −log10 of the molar value.

As a guide, the following entries are already answered.
[
  {
    "compound": "CNC[C@H](c1ccc2ccccc2c1)[C@H](O)c1cncc(OC)c1",
    "property measured": "pIC50",
    "assay result": 4.48
  },
  {
    "compound": "CNC[C@@H](c1ccc2ccccc2c1)[C@@H](O)c1ccccc1F",
    "property measured": "pIC50",
    "assay result": 4.92
  }
]

Working through the 2 compounds below one at a time, give pIC50 for each.
1. CN(C)CC(C)(c1ccc2ccccc2c1)C(O)c1ccccc1 (stereo not shown)
2. CNCC(Cc1ccccc1O)c1ccc2ccccc2c1 (stereo not shown) [Compound 52]

1: 6.07; 2: 4.92

Working through the 6 compounds below one at a time, give pIC50 for each.
1. CNC[C@H](c1ccc(Cl)c(Cl)c1)[C@@H](O)c1ccccc1
2. CNC[C@H](c1ccc2ccccc2c1)[C@H](OCc1cc(C)on1)c1ccccc1
3. CCOC(=O)CO[C@H](c1ccccc1)[C@H](CNC)c1ccc2ccccc2c1
4. CNC[C@@H](c1ccc2ccccc2c1)[C@H](O)c1ccccn1 (racemic) [Compound 72]
5. CNC[C@@H](c1ccc(Cl)c(Cl)c1)[C@@H](O)c1ccsc1
6. CNCC(C[C@H](O)c1ccccc1)c1ccc2ccccc2c1 (stereo partly shown)

4.51
5.34
4.89
4.48
5.80
4.68

Working through the 8 compounds below one at a time, give pIC50 for each.
1. CNC[C@H](c1ccc2ccccc2c1)[C@H](Cl)c1ccccc1
2. CNCC(Cc1ccccc1CO)c1ccc2ccccc2c1 (stereo not shown) [Compound 2]
3. CNC[C@H](c1ccc(Cl)c(Cl)c1)[C@@H](O)c1ccccc1SC
4. CNC[C@H](c1ccc2ccccc2c1)[C@H](OCC(=O)NC1CC1)c1ccccc1
5. CCCNC(=O)CO[C@H](c1ccccc1)[C@H](CNC)c1ccc2ccccc2c1
6. CNC[C@H](c1ccc2ccccc2c1)[C@@H](Cl)c1ccccc1
7. CNC[C@H](c1ccc2ccccc2c1)[C@H](OC)c1ccc2c(c1)OCO2 (racemic)
8. CCc1ccccc1[C@@H](O)[C@H](CNC)c1ccc(Cl)c(Cl)c1

1: 4.82; 2: 4.82; 3: 5.10; 4: 4.72; 5: 4.96; 6: 5.01; 7: 5.27; 8: 5.36

###

biological target: human norepinephrine transporter (Homo sapiens (Human), UniProt P23975); test: Human NET (norepinephrine transporter) uptake assay; type: cell-based; conditions: comparison in words, used to assign configuration
Sequence (P23975 whole entry): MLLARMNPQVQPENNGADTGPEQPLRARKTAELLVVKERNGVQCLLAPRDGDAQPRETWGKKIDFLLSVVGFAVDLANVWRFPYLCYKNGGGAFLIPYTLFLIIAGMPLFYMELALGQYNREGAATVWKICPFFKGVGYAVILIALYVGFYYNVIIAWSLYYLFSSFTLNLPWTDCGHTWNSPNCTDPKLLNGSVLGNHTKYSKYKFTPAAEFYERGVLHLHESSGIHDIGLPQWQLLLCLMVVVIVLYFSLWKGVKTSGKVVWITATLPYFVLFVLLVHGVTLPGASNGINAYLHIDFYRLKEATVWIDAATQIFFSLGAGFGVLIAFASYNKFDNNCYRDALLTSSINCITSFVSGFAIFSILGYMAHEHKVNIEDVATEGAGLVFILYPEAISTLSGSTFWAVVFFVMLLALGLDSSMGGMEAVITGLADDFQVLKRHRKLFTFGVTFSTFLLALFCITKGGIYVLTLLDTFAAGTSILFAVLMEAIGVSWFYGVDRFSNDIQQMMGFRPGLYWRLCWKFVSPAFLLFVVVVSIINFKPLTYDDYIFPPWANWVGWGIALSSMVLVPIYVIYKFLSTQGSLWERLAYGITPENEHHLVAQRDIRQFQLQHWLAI
property measured: potency at hNET relative to the other enantiomer or epimer

[
  {
    "compound": "CNC[C@@H](c1ccc2ccccc2c1)[C@@H](O)c1cccnc1 [compound 103]",
    "assay result": "less potent"
  },
  {
    "compound": "CNC[C@H](C[C@H](O)c1ccccc1)c1ccc2ccccc2c1",
    "assay result": "less potent"
  }
]

###

target: human serotonin transporter (Homo sapiens (Human)); experiment: Human SERT (serotonin transporter) uptake assay; format: cell-based; settings: read-out: hSERT Ki
Sequence (P31645 whole entry): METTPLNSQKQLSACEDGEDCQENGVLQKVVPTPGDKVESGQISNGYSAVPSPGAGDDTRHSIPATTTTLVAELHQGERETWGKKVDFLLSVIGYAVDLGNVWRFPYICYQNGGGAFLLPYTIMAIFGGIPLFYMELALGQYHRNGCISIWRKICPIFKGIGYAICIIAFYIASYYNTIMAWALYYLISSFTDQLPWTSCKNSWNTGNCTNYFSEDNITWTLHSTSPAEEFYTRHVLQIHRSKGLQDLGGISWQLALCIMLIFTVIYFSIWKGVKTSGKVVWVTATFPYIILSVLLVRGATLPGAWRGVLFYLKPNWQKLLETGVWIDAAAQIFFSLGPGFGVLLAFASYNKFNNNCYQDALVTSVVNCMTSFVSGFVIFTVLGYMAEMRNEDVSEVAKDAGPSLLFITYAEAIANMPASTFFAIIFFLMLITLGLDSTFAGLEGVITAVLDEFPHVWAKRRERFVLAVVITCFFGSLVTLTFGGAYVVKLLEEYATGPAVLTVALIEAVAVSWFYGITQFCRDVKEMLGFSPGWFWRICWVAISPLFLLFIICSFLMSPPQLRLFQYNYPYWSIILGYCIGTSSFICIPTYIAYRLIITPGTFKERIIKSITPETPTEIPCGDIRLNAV
Each entry falls into one class according to its Ki; the ranges are lowest: < 10 nM; middle: ≥ 10 nM and < 90 nM; highest: ≥ 90 nM

Where would CNC[C@H](c1ccc2ccccc2c1)[C@H](OCc1nc(C)no1)c1ccccc1 land among the classes by reported Ki?
lowest

Where would CNC[C@H](c1ccc2ccccc2c1)[C@H](OCC(=O)NC)c1ccccc1 land among the classes by reported Ki?
lowest

Where would CNC[C@@H](c1ccc(Cl)c(Cl)c1)[C@@H](O)c1ccccc1[S+](C)[O-] (stereo partly drawn) land among the classes by reported Ki?
highest

Where would CNC[C@@H](Cc1cccnc1)c1ccc(Cl)c(Cl)c1 land among the classes by reported Ki?
middle

Where would CNC[C@H](c1ccc(Cl)c(Cl)c1)[C@H](O)c1cccc(I)c1 (single isomer, unassigned) land among the classes by reported Ki?
middle

Where would CNCC(c1ccc2ccccc2c1)C(OC)c1ccccc1 (stereo not drawn) land among the classes by reported Ki?
middle

Where would CNC[C@@H](c1ccc(Cl)c(Cl)c1)[C@@H](O)c1cccnc1OC land among the classes by reported Ki?
highest

Where would NC[C@@H](c1ccc2ccccc2c1)C(O)c1ccncc1Cl (stereo partly drawn) land among the classes by reported Ki?
middle

Where would CNCC(Cc1cccnc1)c1ccc2ccccc2c1 (stereo not drawn) [Compound 48] land among the classes by reported Ki?
lowest

Where would CNCC(Cc1ccccc1C)c1ccc2ccccc2c1 (stereo not drawn) [Compound 39] land among the classes by reported Ki?
middle

Where would CNC[C@H](c1ccc(Cl)c(Cl)c1)[C@H](O)c1cccc(S(C)(=O)=O)c1 land among the classes by reported Ki?
highest

Where would CNC[C@@H](c1ccc2ccccc2c1)[C@@H](O)c1cccnc1 [Compound 49] land among the classes by reported Ki?
lowest

Where would CNCC(Cc1ccccc1C)c1ccc2ccccc2c1 (stereo not drawn) [Compound 134] land among the classes by reported Ki?
lowest

Where would CNCC(Cc1ccccc1O)c1ccc2ccccc2c1 (stereo not drawn) [Compound 52] land among the classes by reported Ki?
middle

Where would CNCC(Cc1ccccc1CO)c1ccc2ccccc2c1 (stereo not drawn) [Compound 2] land among the classes by reported Ki?
lowest

Where would CNC[C@H](c1ccc2ccccc2c1)[C@H](OCC(=O)NCCO)c1ccccc1 land among the classes by reported Ki?
lowest
